# experiment.summary: qHTS assay to identify small molecule antagonists of the peroxisome proliferator-activated receptor delta (PPARd) signaling pathway - cell viability counter screen (AID 743213); note: nearly all actives have a fitted effect of over 50% in size
# run.parameters: PPARd-bla HEK293H viability, CellTiter-Glo luminescence, 17 h; series mostly up to 62 µM
Inconclusive results are not listed. Active and inactive are the calls of the source. Calls come from the whole dose curve; as a rule, active = well fitted cell-killing curve with a large enough effect in the repeat runs; inconclusive = weak or mixed curves; inactive = no such curve, though single readings can be large or run the other way.
parameter: viability change, negative = cytotoxic

- compound: "CCCCOCCOC(=O)COc1ccc(Cl)cc1Cl"
  viability change, negative = cytotoxic: "inactive"
- compound: "CSc1cnccn1"
  viability change, negative = cytotoxic: "inactive"
- compound: "C=CCSSCCC"
  viability change, negative = cytotoxic: "inactive"
- compound: "O=Cc1cc2ccccc2o1"
  viability change, negative = cytotoxic: "inactive"
- compound: "COc1cc(OC)nc(O[C@H](C(=O)O)C(OC)(c2ccccc2)c2ccccc2)n1"
  viability change, negative = cytotoxic: "inactive"
- compound: "Cc1ccc(C)c([N+](=O)[O-])c1"
  viability change, negative = cytotoxic: "inactive"
- compound: "C/C=C(\\C)C(C)=O"
  viability change, negative = cytotoxic: "inactive"
- compound: "C=CC(=O)CCCCC"
  viability change, negative = cytotoxic: "inactive"

Query: Which viability change, negative = cytotoxic value belongs to `CO/N=C(/C(=O)N[C@@H]1C(=O)N2C(C(=O)[O-])=C(C[n+]3ccn4ncccc43)CS[C@H]12)c1nsc(N)n1` ?
Reply: inactive

Query: What do you get for `O=C1CCC(=O)N1Cl` ?
Reply: inactive

Query: // next record `[O-][n+]1cccc(/C(Cl)=N/OC[C@@H](O)CN2CCCCC2)c1`
Reply: inactive

Query: Continue with `O=NN(CCCl)C(=O)NC1CCCCC1`
Reply: inactive

Query: Another: `CC(C)Nc1ccccc1`
Reply: inactive

Query: // repeat for `CC(C)OC(=O)CCC(=O)OC(C)C` and report
Reply: inactive
